Species: Bos taurus
Assay: Inhibition of bovine brain tubulin polymerization at 10 uM after 60 mins by turbidimetry analysis
Calls of active or inactive are those of the source. The rule behind the calls is not given here.
Answer with one of the outcomes y = active, n = inactive

Study these solved cases before continuing.
smiles input	qualitative label
COc1ccc(NC(=O)c2[nH]c(=O)[nH]c2-c2cc(OC)c(OC)c(OC)c2)cc1N	y
COc1ccc(NC(=O)c2[nH]c(=O)[nH]c2-c2cc(OC)c(OC)c(OC)c2)cc1[N+](=O)[O-]	n
COc1cc(-c2[nH]c(=O)[nH]c2C(=O)Nc2cccc(C)c2)cc(OC)c1OC	y

Continue with the next compound.
q: Assay outcome for COc1cc(-c2[nH]c(=O)[nH]c2C(=O)Nc2ccc(C)cc2)cc(OC)c1OC : what was it?
a: y

Provenance of the data: ChEMBL document CHEMBL1777697
